Cited source for all entries: patent US9115093B2

Each entry below carries its reported IC50.
target-or-system: neutrophil elastase (Homo sapiens)
Sequence (P08246 30-247 limits assumed): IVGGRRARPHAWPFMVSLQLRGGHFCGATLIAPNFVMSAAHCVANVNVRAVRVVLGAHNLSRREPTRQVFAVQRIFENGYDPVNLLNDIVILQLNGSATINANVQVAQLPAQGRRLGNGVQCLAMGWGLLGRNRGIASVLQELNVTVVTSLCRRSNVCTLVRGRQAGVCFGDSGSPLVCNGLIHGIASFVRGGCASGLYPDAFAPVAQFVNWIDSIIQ
experiment-notes: Human Neutrophil Elastase Assay
Format: biochemical
Set-up: purchased Calbiochem 324681
test-conditions: substrate MeOSuc-Ala-Ala-Pro-Val-AMC, pH 7.5, room temperature
property-name: IC50 (nM)

| compound | property-name | numeric-value |
| --- | --- | --- |
| N#Cc1ccc(C2C3=C(CCCC3=O)N(c3cccc(C(F)(F)F)c3)C(=O)N2CC(=O)NC2CC2)cc1 (stereo not shown) | IC50 | 13.1 |
| N#Cc1ccc(C2C3=C(CCCC3=O)N(c3cccc(C(F)(F)F)c3)C(=O)N2CC(=O)N2CCn3cncc3C2)cc1 (stereo not shown) | IC50 | 2.6 |
| N#Cc1ccc(C2C3=C(CCCC3=O)N(c3cccc(C(F)(F)F)c3)C(=O)N2CC(=O)NCC2CC2)cc1 (stereo not shown) | IC50 | 20.8 |
| N#Cc1ccc(C2C3=C(CCCC3=O)N(c3cccc(C(F)(F)F)c3)C(=O)N2C(=O)NCC2CC2)cc1 (stereo not shown) | IC50 | 1.4 |
